TEST SYSTEM: Amine oxidase [flavin-containing] B (Homo sapiens)
Sequence (P27338 whole entry): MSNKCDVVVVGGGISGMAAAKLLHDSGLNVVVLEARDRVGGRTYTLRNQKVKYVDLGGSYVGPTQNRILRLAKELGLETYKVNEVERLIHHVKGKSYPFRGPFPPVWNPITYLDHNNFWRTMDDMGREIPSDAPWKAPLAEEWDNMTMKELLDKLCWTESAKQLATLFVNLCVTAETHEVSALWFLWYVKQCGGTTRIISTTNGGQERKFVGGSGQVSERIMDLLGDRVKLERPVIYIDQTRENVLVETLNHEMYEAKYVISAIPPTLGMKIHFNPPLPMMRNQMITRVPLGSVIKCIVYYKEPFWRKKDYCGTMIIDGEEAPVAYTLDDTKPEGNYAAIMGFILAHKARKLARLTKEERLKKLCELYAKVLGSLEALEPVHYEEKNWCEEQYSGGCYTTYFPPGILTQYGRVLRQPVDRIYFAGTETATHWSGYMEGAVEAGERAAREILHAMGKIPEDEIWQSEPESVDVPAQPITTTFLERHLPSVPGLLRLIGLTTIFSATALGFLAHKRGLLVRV
ASSAY COMMENT: Inhibition of human recombinant MAO-B extracted from baculovirus infected in BTI-TN-5B1-4 insect cells incubated for 20 mins by Amplex Red reagent based fluorescence analysis
Type: cell-based
READOUT NAME: IC50 (nM)
Kindly answer with a numeric value in nM, unit omitted.

Name the recorded IC50 for O=c1oc2cc(O)ccc2cc1-c1cc(Br)cs1 .
140

----------
System: NUGC-3
ASSAY COMMENT: Cytotoxicity against human NUGC-3 cells assessed as reduction in cell growth incubated for 24 hrs by SRB assay
Format: functional, cell-based
STATED CONDITIONS: NUGC-3, 24 h
READOUT NAME: IC50 (nM)
Give just the numeric value; nM need not be written.

For the molecule shown here, N#CC(C#N)=NNc1sc2c(c1C1=NC(=O)C(Cc3ccc(Cl)cc3)S1)CCCC2 (stereo unspecified) , give the reported IC50.
59

----------
Tested on: HCT-116
ASSAY COMMENT: Cytotoxicity against human HCT-116 cells assessed as reduction in cell growth incubated for 24 hrs by MTT assay
Format: functional, cell-based
STATED CONDITIONS: HCT-116, 24 h
READOUT NAME: IC50 (nM)
Unit nM implied. Number only.

Requested field: IC50. Item: COc1cccc(/C=N/NC(=O)c2cccs2)c1O
820

Recorded values, source ChEMBL document CHEMBL6182828.
